Measured MIC accompanies every entry in the list below.
- Test system: P. aeruginosa MP-3
- TEST: Broth dilution MIC determination (CLSI), P. aeruginosa MP-3
- Assay type: cell-based
- CONDITION DETAILS: Pseudomonas aeruginosa, MP3; strain MP-3, broth dilution

>  <COMPOUND>
CO[C@]1(C)C[C@@H](C)CN(C)[C@H](C2CN(C(=O)CCN(C)C)C2)COC(=O)C(C)(C)C(=O)[C@H](C)[C@H]1O[C@@H]1O[C@H](C)C[C@H](N(C)C)[C@H]1O [Compound 50]

>  <MIC>
> 32 µg/mL

$$$$
>  <COMPOUND>
CO[C@]1(C)C[C@@H](C)CN(C)[C@@H](C2CN(C(=O)[C@@H](C)N(C)C)C2)COC(=O)C(C)(C)C(=O)[C@H](C)[C@H]1O[C@@H]1O[C@H](C)C[C@H](N(C)C)[C@H]1O [Compound 52]

>  <MIC>
> 32 µg/mL

$$$$
>  <COMPOUND>
CO[C@]1(C)C[C@@H](C)CN(C)[C@H]([C@@H]2CCCN2C)COC(=O)C(C)(C)C(=O)[C@H](C)[C@H]1O[C@@H]1O[C@H](C)C[C@H](N(C)C)[C@H]1O [Compound 106]

>  <MIC>
> 32 µg/mL

$$$$
>  <COMPOUND>
CCN1CCC([C@H]2COC(=O)C(C)(C)C(=O)[C@H](C)[C@@H](O[C@@H]3O[C@H](C)C[C@H](N(C)C)[C@H]3O)[C@](C)(OC)C[C@@H](C)CN2C)CC1 [Compound 175]

>  <MIC>
> 32 µg/mL

$$$$
>  <COMPOUND>
CO[C@]1(C)C[C@@H](C)CN(C)[C@H](C2CN(Cc3cnn(C)c3)C2)COC(=O)C(C)(C)C(=O)[C@H](C)[C@H]1O[C@@H]1O[C@H](C)C[C@H](N(C)C)[C@H]1O [Compound 49]

>  <MIC>
> 32 µg/mL

$$$$
>  <COMPOUND>
CO[C@]1(C)C[C@@H](C)CN(C)[C@H](C2CN(Cc3ccncc3)C2)COC(=O)C(C)(C)C(=O)[C@H](C)[C@H]1O[C@@H]1O[C@H](C)C[C@H](N(C)C)[C@H]1O [Compound 176]

>  <MIC>
> 32 µg/mL

$$$$
>  <COMPOUND>
CN[C@H]1CC[C@H]([C@H]2COC(=O)C(C)(C)C(=O)[C@H](C)[C@@H](O[C@@H]3O[C@H](C)C[C@H](N(C)C)[C@H]3O)[C@](C)(OC)C[C@@H](C)CN2C)CC1 [Compound 26]

>  <MIC>
> 32 µg/mL

$$$$
>  <COMPOUND>
CCCN1CCC([C@]2(C)COC(=O)C(C)(C)C(=O)[C@H](C)[C@@H](O[C@@H]3O[C@H](C)C[C@H](N(C)C)[C@H]3O)[C@](C)(OC)C[C@@H](C)CN2C)CC1 [Compound 143]

>  <MIC>
> 32 µg/mL

$$$$
>  <COMPOUND>
CO[C@]1(C)C[C@@H](C)CN(C)[C@H](C2CN(C(=O)CCN(C)CC(C)C)C2)COC(=O)C(C)(C)C(=O)[C@H](C)[C@H]1O[C@@H]1O[C@H](C)C[C@H](N(C)C)[C@H]1O [Compound 125]

>  <MIC>
> 32 µg/mL

$$$$
>  <COMPOUND>
CO[C@]1(C)C[C@@H](C)CN[C@H](C2CCN(C(C)C)CC2)COC(=O)C(C)(C)C(=O)[C@H](C)[C@H]1O[C@@H]1O[C@H](C)C[C@H](N(C)C)[C@H]1O [Compound 7]

>  <MIC>
> 32 µg/mL

$$$$
>  <COMPOUND>
CO[C@]1(C)C[C@@H](C)CN(C)[C@H]([C@@H]2CCCN(C)C2)COC(=O)C(C)(C)C(=O)[C@H](C)[C@H]1O[C@@H]1O[C@H](C)C[C@H](N(C)C)[C@H]1O [Compound 113]

>  <MIC>
> 32 µg/mL

$$$$
>  <COMPOUND>
CO[C@]1(C)C[C@@H](C)CN(C)[C@@H]([C@@H]2CCN(C)C2)COC(=O)C(C)(C)C(=O)[C@H](C)[C@H]1O[C@@H]1O[C@H](C)C[C@H](N(C)C)[C@H]1O [Compound 109]

>  <MIC>
> 32 µg/mL

$$$$
>  <COMPOUND>
CO[C@]1(C)C[C@@H](C)CN(C)[C@@H]([C@H]2CCN(C(C)=O)C2)COC(=O)C(C)(C)C(=O)[C@H](C)[C@H]1O[C@@H]1O[C@H](C)C[C@H](N(C)C)[C@H]1O [Compound 140]

>  <MIC>
> 32 µg/mL

$$$$
>  <COMPOUND>
CO[C@]1(C)C[C@@H](C)CN(C)[C@H](c2ccc(-c3cccnc3)cc2)COC(=O)C(C)(C)C(=O)[C@H](C)[C@@H]1O[C@@H]1O[C@@H](C)C[C@H](N(C)C)[C@H]1O [Compound 188]

>  <MIC>
> 32 µg/mL

$$$$
>  <COMPOUND>
CO[C@]1(C)C[C@@H](C)CN(C)[C@@H](C2CCCCC2)COC(=O)C(C)(C)C(=O)[C@H](C)[C@H]1O[C@@H]1O[C@H](C)C[C@H](N(C)C)[C@H]1O [Compound 102]

>  <MIC>
> 32 µg/mL

$$$$
>  <COMPOUND>
CO[C@]1(C)C[C@@H](C)CN(C)[C@H](C2CN(C3CCCCC3)C2)COC(=O)C(C)(C)C(=O)[C@H](C)[C@H]1O[C@@H]1O[C@H](C)C[C@H](N(C)C)[C@H]1O [Compound 73]

>  <MIC>
> 32 µg/mL

$$$$
>  <COMPOUND>
CO[C@]1(C)C[C@@H](C)CN(CC(C)C)[C@H](C2CN(C(=O)CN(C)C)C2)COC(=O)C(C)(C)C(=O)[C@H](C)[C@H]1O[C@@H]1O[C@H](C)C[C@H](N(C)C)[C@H]1O [Compound 27]

>  <MIC>
> 32 µg/mL

$$$$
>  <COMPOUND>
CO[C@]1(C)C[C@@H](C)CN(C)[C@H](C2CN(CC(C)(C)C)C2)COC(=O)C(C)(C)C(=O)[C@H](C)[C@H]1O[C@@H]1O[C@H](C)C[C@H](N(C)C)[C@H]1O [Compound 114]

>  <MIC>
> 32 µg/mL

$$$$
>  <COMPOUND>
CO[C@]1(C)C[C@@H](C)CN(C)[C@H](C2CN(C(=O)CN3Cc4ccccc4C3)C2)COC(=O)C(C)(C)C(=O)[C@H](C)[C@H]1O[C@@H]1O[C@H](C)C[C@H](N(C)C)[C@H]1O [Compound 10]

>  <MIC>
> 32 µg/mL

$$$$

* * *

- Tested on: K. pneumoniae MP-546
- TEST: Broth dilution MIC determination (CLSI), K. pneumoniae MP-546
- Type: cell-based
- CONDITION DETAILS: Klebsiella pneumoniae, MP546; strain MP-546, broth dilution
Measured MIC accompanies every entry in the list below.

>  <COMPOUND>
CCCN1C[C@H](C)C[C@@](C)(OC)[C@H](O[C@@H]2O[C@H](C)C[C@H](N(C)C)[C@H]2O)[C@@H](C)C(=O)C(C)(C)C(=O)OC[C@H]1[C@H]1C[C@H](N(C)CC(C)C)C1 [Compound 60]

>  <MIC>
4 to 32 µg/mL

$$$$
>  <COMPOUND>
CO[C@]1(C)C[C@@H](C)CN(C)[C@H](C2CN(C(=O)CCCN(C)CC3CC3)C2)COC(=O)C(C)(C)C(=O)[C@H](C)[C@H]1O[C@@H]1O[C@H](C)C[C@H](N(C)C)[C@H]1O [Compound 61]

>  <MIC>
4 to 32 µg/mL

$$$$
>  <COMPOUND>
CO[C@]1(C)C[C@@H](C)CN(C)[C@@H]([C@H]2CCN(C)C2)COC(=O)C(C)(C)C(=O)[C@H](C)[C@H]1O[C@@H]1O[C@H](C)C[C@H](N(C)C)[C@H]1O [Compound 48]

>  <MIC>
< 4 µg/mL

$$$$
>  <COMPOUND>
CO[C@]1(C)C[C@@H](C)CN(C)[C@@H]([C@H]2CC[C@H](N(C)C(=O)CN(C)C)CC2)COC(=O)C(C)(C)C(=O)[C@H](C)[C@H]1O[C@@H]1O[C@H](C)C[C@H](N(C)C)[C@H]1O [Compound 82]

>  <MIC>
> 32 µg/mL

$$$$
>  <COMPOUND>
CO[C@]1(C)C[C@@H](C)CN(C)[C@@H]([C@@H]2CCCNC2)COC(=O)C(C)(C)C(=O)[C@H](C)[C@H]1O[C@@H]1O[C@H](C)C[C@H](N(C)C)[C@H]1O [Compound 53]

>  <MIC>
< 4 µg/mL

$$$$
>  <COMPOUND>
CO[C@]1(C)C[C@@H](C)CN(C)[C@H](c2ccncc2)COC(=O)C(C)(C)C(=O)[C@H](C)[C@H]1O[C@@H]1O[C@H](C)C[C@H](N(C)C)[C@H]1O [Compound 19]

>  <MIC>
> 32 µg/mL

$$$$
